assay-target: full-length trimeric SARS-CoV spike protein (SARS-CoV, UniProt P59594 14-1190)
For each of the binders below, state its median fluorescence intensity, fold over isotype control.
Numbers only, in fold over isotype.

{"binder": "antibody 273 (antibody, V domains shown) VH: QVQLVQSGAEVKKPGASVKVSCKVSGYTLTELSMHWVRQAPGKGLEWMGGFDPEDGETIYAQKFQGRVTMTEDTSTDTAYMELSSLRSEDTAVYYCATAPGYYDSSAPQPINWFDPWGQGTLVTVSS VL: QSALTQPASVSGSPGQSITISCTGTSSDVGSYNLVSWYQQHPGKAPKLMIYEVSKRPSGVSNRFSGSKSGNTASLTISGLQAEDEADYYCCSYAGSSTLVFGGGTKLTVL", "quantity-unit": "fold over isotype", "result": 1.23}

Take each entry in turn and give its median fluorescence intensity, fold over isotype control.
1. antibody 301 (antibody, V domains shown) VH: QVQLVQSGAEVKKPGASVKVSCKVSGYTLTELSMHWVRQAPGKGLEWMGGFDPEDGETIYAQKFQGRVTMTEDTSTDTAYMELSSLRSEDTAVYYCATAFCGGDCYPPDALDIWGQGTMVTVSS VL: DIQMTQSPSSVSASVGDRVTITCRASQGISSWLAWYQQKPGKAPKLLIYAASSLQSGVPSRFSGSGSGTDFTLTISSLQPEDFATYYCQQANSFPLTFGGGTKVEIK
2. antibody 267 (antibody, V domains shown) VH: EVHLVQSGAEMKKPGATVKISCKVSGNTFIDHYIQWVQQAPGKGFEWMGLVDPEDGETIYAEKFQGRVTITADTSRDTAYMELSSLKSEDTAVYYCGTHGDYLDYWGQGTLVTVSS VL: FYELTQPSSVSVSPGQTALITCSGDVVAKKYARWFQQKAGQAPVLVIYKDTERPSGIPERISGSSSGTTVTLTISGAQVEDEADYYCYSATDNNLVFGGGTKVTVL

result:
1: 1.45; 2: 16.9

# batch: return median fluorescence intensity, fold over isotype control for each of the 8 binders below
1. antibody 270 (antibody, V domains shown) VH: QVQLVQSGAEVKRPGTSVKVSCKTSGYTFTDHFIHWVRQAPGRRLEWMGWINPNSGGTNYAQNFQGRVTMTRDTSITTAYMDLTRLTSDDTAIYYCAREAAYGSGNLNWFDPWGQGTRVTVSS VL: NFMLTQPHSVSESPGKTVTISCTGSSGSIAANYVHWYQQRPGSAPRTVIYEDNQRPSGVPDRFSGSIDSSSNSASLTISGLKTEDEADYYCQSYDGDSWVFGGGTKLTVL
2. antibody 315 (antibody, V domains shown) VH: QVQLVQSGSELKKPGASVKLSCQASGYSFTNHAMNWVRQAPGQGLEWMGWINTNTGNPTYAQGFTGRFVFSLDTSVSTTYLHISSLKAEDTAVYYCARASARPGVATNLDFWGQGTLVVVSS VL: DIQMTQSPSSLSASVGDRVTITCRASQNIDNYLNWYQQKPGKAPKLLIYAASRLHSGVPSRFSGSGSGTDFTLIISSLQPEDLATYYCQQSYSNPLTFGPGTKVDIR
3. antibody 290 (antibody, V domains shown) VH: QVHLVQSGAEVKKPGASVKVSCAASGYTFNNYGVSWVRQAPGQGLEWMGWISASNGNTKYAQNLQGRVTMTTDTSTSTAYMELRSLRSDDTAVYYCARDLVGPTAPNYYYGMDVWGQGTAVTVSS VL: QSVLTQPPSVSGAPGQRVTISCTGSSSSIGAGYDVHWYQQLPGTAPKLLIYANSNRPSGVPDRLSGSKSGTSASLAITGLQAEDEADYYCQSYDSSLSGYVFGTGTKVTVL
4. antibody 265 (antibody, V domains shown) VH: EVQLVQSGAEVKKPGATVKVSCKFSGDTFSHYYIHWVQQAPGKGLEWMGLVDPQDGESEYAQKFQGKVTITADTSIDTSYLEVTSLRFDDTAFYFCATRGMSGAFDRWGQGTLVTVSS VL: DIVMTQSPDSLAVSLGERATINCKSSQSILSTSNNKNYLAWYQQKPGQPPKLLIYWASTRESGVPDRFSGGGSGTDFTLTISSLQAEDVAVYYCQQYYRTAYTTPIYTFGQGTKLEIK
5. antibody 295 (antibody, V domains shown) VH: QVQLQESGPGLVKPSQTLSLTCTVSGGSISSSDYYWSWIRQPPGKGLEWIGYIYYSGSTYYNPSLKSRVTISVDTSKNQFSLKLSSVTAADTAVYYCARVVGYCSSTSCYVDYWGQGTLVTVSS VL: EIVLTQSPATLSLSPGERVTLSCRASQSVSSYLAWYQQKPGQAPRLLIYDASNRATGIPARFSGSGSGTDFTLTISSLEPEDFAVYYCQQRSNWPPGLTFGGGTKVEIK
6. antibody 263 (antibody, V domains shown) VH: EVQLVQSGAEVKKPGATVKISCKVSGYTFTDYYMHWVQQAPGKGLEWMGLVDPEDGETIYAEKFQGRVTITADTSTDTAYMELSSLRSDDTAVYYCTTDLAFTIFGGRRGFDPWGQGTLVTVSS VL: DIQLTQSPSFLSASVGDRVTITCRASQGISSYLAWYQQKPGKAPKLLIYAASTLQSGVPSRFSGSGSGTEFTLTISSLQPEDFATYYCQQLNSYDFGQGTRLEIK
7. antibody 259 (antibody, V domains shown) VH: EVQLVQSGAEVKKPGATVKISCKVSGYTFTDYYMHWVQQAPGKGLEWMGLVDPEDGETIYAEKFQGRVTITADTSTDTAYMELSSLRSEDTAVYYCATDLLSWKLYCSGGSCPQMDVWGQGTTVTVSS VL: DIQMTQSPSSLSASVGDRVTITCRASQGIRNDLGWYQQKPGKAPKRLIYAASSLQSGVPSRFSGSGSGTEFTLTISSLQPEDFATYYCLQHNSYPQTFGQGTKLEIK
8. antibody 294 (antibody, V domains shown) VH: EVQLVESGGGLVQPGGSLRLSCAASGFTVSSNYMNWVRQAPGKGLEWVSVIYSGGSTYYADSVKGRFTISRDNSKNTLYLQMNSLRAEDTAVYYCARDLGPSGMDVWGQGTTVTVSS VL: DIQMTQSPSSVSASVGDRVTITCRASQGISSWLAWYQQKPGKAPKLLIYAASSLQSGVPSRFSGSGSGTDFTLTISSLQPEDFATYYCQQANSFPLFGGGTKVEIK

result:
1.34
1.07
1.25
1.09
1.24
1.13
1.03
1.07
